The following molecules each carry a recorded log10 of Ki for Cannabinoid receptor 1 (Homo sapiens).
Measured property: log10 of Ki (log10 of the value in nM)

- Smiles string: "CCCn1cc(C(=O)c2ccc(Cl)c3ccccc23)c2ccccc21"
  System name: "Cannabinoid receptor 1 (Homo sapiens)"
  Recorded number: 1.97
- Smiles string: "CCCCCn1c(C)c(C(=O)c2cccc3cccc(Br)c23)c2ccccc21"
  System name: "Cannabinoid receptor 1 (Homo sapiens)"
  Recorded number: 1.73
- Smiles string: "CCCCCn1cc(C(=O)c2cccc3cccc(Cl)c23)c2ccccc21"
  System name: "Cannabinoid receptor 1 (Homo sapiens)"
  Recorded number: 1.36
- Smiles string: "CCCn1cc(C(=O)c2cccc3cccc(I)c23)c2ccccc21"
  System name: "Cannabinoid receptor 1 (Homo sapiens)"
  Recorded number: 3.47
- Smiles string: "CCCn1c(C)c(C(=O)c2ccc(Br)c3ccccc23)c2ccccc21"
  System name: "Cannabinoid receptor 1 (Homo sapiens)"
  Recorded number: 2.57
- Smiles string: "CCCCCn1c(C)c(C(=O)c2cccc3cccc(Cl)c23)c2ccccc21"
  System name: "Cannabinoid receptor 1 (Homo sapiens)"
  Recorded number: 2.06

---

organism: Homo sapiens; assay: Selectivity ratio of Ki for human CB1 receptor to Ki for human CB2 receptor
Please assign a class to every record based on measured Ratio Ki, with ranges bin 1 = under 4, bin 2 = from 4 up to 7, bin 3 = 7 and over

- Smiles string: "CCCCCn1c(C)c(C(=O)c2cccc3cccc(Cl)c23)c2ccccc21"
  Class label: "bin 2"
- Smiles string: "CCCCCn1cc(C(=O)c2cccc3cccc(I)c23)c2ccccc21"
  Class label: "bin 3"
- Smiles string: "CCCn1c(C)c(C(=O)c2cccc3cccc(Cl)c23)c2ccccc21"
  Class label: "bin 3"
- Smiles string: "CCCCCn1cc(C(=O)c2cccc3cccc(Cl)c23)c2ccccc21"
  Class label: "bin 1"
- Smiles string: "CCCn1c(C)c(C(=O)c2ccc(I)c3ccccc23)c2ccccc21"
  Class label: "bin 3"
- Smiles string: "CCCn1cc(C(=O)c2cccc3cccc(Cl)c23)c2ccccc21"
  Class label: "bin 2"
- Smiles string: "CCCn1c(C)c(C(=O)c2cccc3cccc(Br)c23)c2ccccc21"
  Class label: "bin 3"
- Smiles string: "CCCn1c(C)c(C(=O)c2ccc(Br)c3ccccc23)c2ccccc21"
  Class label: "bin 3"
- Smiles string: "CCCCCn1c(C)c(C(=O)c2ccc(Br)c3ccccc23)c2ccccc21"
  Class label: "bin 2"
- Smiles string: "CCCCCn1cc(C(=O)c2ccc(F)c3ccccc23)c2ccccc21"
  Class label: "bin 1"
- Smiles string: "CCCCCn1cc(C(=O)c2ccc(Cl)c3ccccc23)c2ccccc21"
  Class label: "bin 1"
- Smiles string: "CCCn1cc(C(=O)c2cccc3cccc(Br)c23)c2ccccc21"
  Class label: "bin 3"
- Smiles string: "CCCn1c(C)c(C(=O)c2ccc(F)c3ccccc23)c2ccccc21"
  Class label: "bin 3"
- Smiles string: "CCCn1cc(C(=O)c2ccc(Cl)c3ccccc23)c2ccccc21"
  Class label: "bin 1"
- Smiles string: "CCCn1cc(C(=O)c2ccc(Br)c3ccccc23)c2ccccc21"
  Class label: "bin 2"
- Smiles string: "CCCCCn1cc(C(=O)c2ccc(Br)c3ccccc23)c2ccccc21"
  Class label: "bin 1"
- Smiles string: "CCCCCn1cc(C(=O)c2ccc(I)c3ccccc23)c2ccccc21"
  Class label: "bin 1"
- Smiles string: "CCCCCn1c(C)c(C(=O)c2cccc3cccc(I)c23)c2ccccc21"
  Class label: "bin 3"
- Smiles string: "CCCCCn1c(C)c(C(=O)c2cccc3cccc(Br)c23)c2ccccc21"
  Class label: "bin 2"
- Smiles string: "CCCn1cc(C(=O)c2ccc(I)c3ccccc23)c2ccccc21"
  Class label: "bin 3"

---

target: Cannabinoid receptor 2 (Homo sapiens, UniProt P34972)
Sequence (P34972 whole entry): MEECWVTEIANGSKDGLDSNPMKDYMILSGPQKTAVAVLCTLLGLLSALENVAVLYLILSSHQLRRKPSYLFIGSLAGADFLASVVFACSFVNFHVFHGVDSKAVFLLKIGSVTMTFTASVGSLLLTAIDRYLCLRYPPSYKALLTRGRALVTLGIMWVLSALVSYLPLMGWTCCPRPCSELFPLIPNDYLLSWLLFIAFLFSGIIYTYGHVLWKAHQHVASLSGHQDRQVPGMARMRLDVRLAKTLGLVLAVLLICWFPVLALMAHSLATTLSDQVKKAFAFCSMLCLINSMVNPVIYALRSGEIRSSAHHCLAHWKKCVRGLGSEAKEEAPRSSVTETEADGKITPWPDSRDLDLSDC
Recorded Ki by entry
Measured property: Ki

- Smiles string: "CCCCCn1c(C)c(C(=O)c2cccc3cccc(Cl)c23)c2ccccc21"
  Result: "19 nM"
- Smiles string: "CCCn1cc(C(=O)c2ccc(I)c3ccccc23)c2ccccc21"
  Result: "6.6 nM"
- Smiles string: "CCCCCn1cc(C(=O)c2ccc(I)c3ccccc23)c2ccccc21"
  Result: "1.3 nM"
- Smiles string: "CCCCCn1cc(C(=O)c2cccc3cccc(I)c23)c2ccccc21"
  Result: "3.3 nM"
- Smiles string: "CCCCCn1cc(C(=O)c2ccc(Br)c3ccccc23)c2ccccc21"
  Result: "1.1 nM"
- Smiles string: "CCCCCn1c(C)c(C(=O)c2cccc3cccc(I)c23)c2ccccc21"
  Result: "13 nM"
- Smiles string: "CCCn1cc(C(=O)c2cccc3cccc(Cl)c23)c2ccccc21"
  Result: "134 nM"
- Smiles string: "CCCn1c(C)c(C(=O)c2ccc(F)c3ccccc23)c2ccccc21"
  Result: "38 nM"
- Smiles string: "CCCn1c(C)c(C(=O)c2cccc3cccc(I)c23)c2ccccc21"
  Result: "536 nM"
- Smiles string: "CCCn1cc(C(=O)c2ccc(Cl)c3ccccc23)c2ccccc21"
  Result: "44 nM"
- Smiles string: "CCCCCn1cc(C(=O)c2ccc(Cl)c3ccccc23)c2ccccc21"
  Result: "2.8 nM"
- Smiles string: "CCCCCn1cc(C(=O)c2cccc3cccc(Cl)c23)c2ccccc21"
  Result: "10 nM"
- Smiles string: "CCCn1cc(C(=O)c2ccc(F)c3ccccc23)c2ccccc21"
  Result: "33 nM"
- Smiles string: "CCCn1c(C)c(C(=O)c2cccc3cccc(Br)c23)c2ccccc21"
  Result: "278 nM"
- Smiles string: "CCCCCn1c(C)c(C(=O)c2cccc3cccc(Br)c23)c2ccccc21"
  Result: "10 nM"
- Smiles string: "CCCCCn1c(C)c(C(=O)c2ccc(Cl)c3ccccc23)c2ccccc21"
  Result: "2.3 nM"
- Smiles string: "CCCn1cc(C(=O)c2cccc3cccc(I)c23)c2ccccc21"
  Result: "152 nM"
- Smiles string: "CCCCCn1cc(C(=O)c2ccc(F)c3ccccc23)c2ccccc21"
  Result: "3.2 nM"
- Smiles string: "CCCn1cc(C(=O)c2cccc3cccc(Br)c23)c2ccccc21"
  Result: "192 nM"
- Smiles string: "CCCCCn1c(C)c(C(=O)c2ccc(Br)c3ccccc23)c2ccccc21"
  Result: "2.8 nM"
- Smiles string: "CCCn1c(C)c(C(=O)c2ccc(Cl)c3ccccc23)c2ccccc21"
  Result: "22 nM"
- Smiles string: "CCCn1c(C)c(C(=O)c2cccc3cccc(Cl)c23)c2ccccc21"
  Result: "174 nM"
- Smiles string: "CCCn1c(C)c(C(=O)c2ccc(Br)c3ccccc23)c2ccccc21"
  Result: "31 nM"

---

system: Mus musculus; experiment: Antinociceptive activity in Harlan ICR mouse assessed as latency to heat-induced tail flicking at 77 umol/kg, iv at 20 mins relative to control; type: functional

- Smiles string: "CCCn1cc(C(=O)c2ccc(Br)c3ccccc23)c2ccccc21"
  System name: "Mus musculus"
  Activity: "75%"
- Smiles string: "CCCCCn1c(C)c(C(=O)c2cccc3cccc(Cl)c23)c2ccccc21"
  System name: "Mus musculus"
  Activity: "100%"
- Smiles string: "CCCn1cc(C(=O)c2cccc3cccc(Br)c23)c2ccccc21"
  System name: "Mus musculus"
  Activity: "9%"
- Smiles string: "CCCCCn1c(C)c(C(=O)c2ccc(Cl)c3ccccc23)c2ccccc21"
  System name: "Mus musculus"
  Activity: "100%"

---

species on record: Homo sapiens; experiment: Selectivity ratio of Ki for human CB1 receptor to Ki for human CB2 receptor
Recorded Ratio Ki by entry

- Smiles string: "CCCn1c(C)c(C(=O)c2ccc(Cl)c3ccccc23)c2ccccc21"
  Ratio Ki: 9
- Smiles string: "CCCCCn1c(C)c(C(=O)c2ccc(F)c3ccccc23)c2ccccc21"
  Ratio Ki: 6
- Smiles string: "CCCCCn1cc(C(=O)c2cccc3ccccc23)c2ccccc21"
  Ratio Ki: 3.2
- Smiles string: "CCCn1c(C)c(C(=O)c2cccc3cccc(I)c23)c2ccccc21"
  Ratio Ki: 8
- Smiles string: "CCCCCn1c(C)c(C(=O)c2ccc(I)c3ccccc23)c2ccccc21"
  Ratio Ki: 7
- Smiles string: "CCCn1cc(C(=O)c2cccc3cccc(I)c23)c2ccccc21"
  Ratio Ki: 19

---

Recorded log10(ED50) by entry
tested on: Mus musculus; assay: Locomotor activity in iv dosed Harlan ICR mouse from 5 to 15 mins by spontaneous locomotor activity test; assay type: functional
Measured property: log10(ED50) (log10 of the value in µmol/kg)

- Smiles string: "CCCCCc1cc(O)c2c(c1)OC(C)(C)[C@@H]1CCC(C)=C[C@@H]21"
  log10(ED50): 0.51
- Smiles string: "CCCCCn1c(C)c(C(=O)c2ccc(I)c3ccccc23)c2ccccc21"
  log10(ED50): 0.04
- Smiles string: "CCCCCn1cc(C(=O)c2cccc3cccc(I)c23)c2ccccc21"
  log10(ED50): 0.26
- Smiles string: "CCCn1c(C)c(C(=O)c2ccc(F)c3ccccc23)c2ccccc21"
  log10(ED50): 0.98
- Smiles string: "CCCCCn1c(C)c(C(=O)c2ccc(F)c3ccccc23)c2ccccc21"
  log10(ED50): -0.42
- Smiles string: "CCCCCn1cc(C(=O)c2cccc3cccc(Br)c23)c2ccccc21"
  log10(ED50): 0.15
- Smiles string: "CCCCCn1cc(C(=O)c2ccc(I)c3ccccc23)c2ccccc21"
  log10(ED50): -0.52
